test system: XF498; assay: NCI tumour cell line growth inhibition, 48 h
Activity calls are given as the source filed them. Cut-off read from the data, not from the text of the source: active = GI50 up to about 1.1 µM and inactive = higher.
Would you kindly list GI50 for each of these molecules?

Solved cases below.
COc1cc(-c2cc(-c3cc([N+](=O)[O-])c(/C=N/NC(=O)c4ccncc4)o3)ccc2OC)ccc1C; > 100 µM (inactive)
CCOC(=O)NC(=O)c1cn(CCCOC(=O)CCCCCCCCCCC(=O)OCCCn2cc(C(=O)NC(=O)OCC)c(=O)[nH]c2=O)c(=O)[nH]c1=O; > 100 µM (inactive)
O=[N+]([O-])c1ccc(C2=Nc3ccccc3[S+]([O-])C(c3ccccc3)C2)cc1 (centres undefined); 21.4 µM (inactive)
O=C(Nc1nnc(S)[nH]1)C(=O)C(C(=O)c1ccc2ccccc2c1)C1OC(=O)c2ccccc21 (centres undefined); 2.09 µM (inactive)
CCOC(=O)C(=O)Nc1nc2c(s1)C(=O)c1ccccc1C2=O; 13.9 µM (inactive)
COc1cc(O)c(C(=O)/C=C/c2ccc(OC)c(OCc3ccccc3)c2)c(OC)c1; > 100 µM (inactive)
N/C(=N\O)N/N=C/c1ncccc1O; 12.4 µM (inactive)
O=[N+]([O-])c1ccccc1C1N2CCCCC2[C@@H]2c3[nH]c4ccccc4c3CCN12 (some centres undefined); 16.9 µM (inactive)

Turning now to a further record.
Form field: reported GI50 of Cc1cc(Cl)ccc1C1OC(=O)c2c1ccc1ccccc21 (centres undefined)
> 100 µM (inactive)

###

tested on: CAKI-1; assay: NCI tumour cell line growth inhibition, 48 h
Activity calls are given as the source filed them. Cut-off read from the data, not from the text of the source: active = GI50 up to about 1.1 µM and inactive = higher.
Your response should consist of one outcome taken from true = active, false = inactive

Short answer needed: outcome of this test for O=C(/C=C/c1ccccc1)CSc1nc[nH]n1 ?
false

Short answer needed: outcome of this test for COc1cc(-c2oc3c(OC)c(OC)cc(O)c3c(=O)c2OC)ccc1O ?
false

Short answer needed: outcome of this test for CN(C)CCn1c(=O)c2ccc(NCCNCCO)c3c(=O)c4ccccc4n(c1=O)c23 ?
true

Short answer needed: outcome of this test for CC(=O)OC/C=C(\C)CCC(Br)C(C)(C)Br (stereo not drawn) ?
false

Short answer needed: outcome of this test for NC(=O)C#CC#CC#CCO ?
false

###

Would you kindly list GI50 for each of these molecules?
tested on: 786-0; experiment: NCI tumour cell line growth inhibition, 48 h
Activity calls are given as the source filed them. Rule as the data show it: active = GI50 up to about 1.1 µM and inactive = higher.

Solved cases below.
O=C(O)[C@H](c1ccccc1)[C@@H](C(=O)O)c1ccccc1; > 100 µM (inactive)
CC(C)OP(=O)(OC(C)C)/C(N)=N/Nc1ccc([N+](=O)[O-])cc1; > 100 µM (inactive)
COc1ccc(/C=C/c2ccnc3ccccc23)c(OC)c1; 9.25 µM (inactive)
COC(=O)c1c2c(cc3c1CC1(Cc4ccccc4C1)C3)CCC2; 27.9 µM (inactive)
COc1cccc(C2c3cc4c(cc3OC(N3CCCC3)C2C)OCO4)c1O (centres undefined); 4.89 µM (inactive)
CC(C)=NNC1=NC(C)(C)P(=O)(NNc2ncccn2)S1 (centres undefined); > 100 µM (inactive)
C=C1C(=O)O[C@@H]2C(=O)[C@@H](C)[C@@H]3C=CC(=O)[C@@]3(C)[C@@H](OC(=O)/C(C)=C\C)[C@H]12; 0.31 µM (active)
CCCN(CCC)C(=O)c1nc(N)nc(-c2ccc(OC)cc2)c1-c1ccc(OC)cc1; > 100 µM (inactive)

Form field: reported GI50 of CCOC(=O)CCC(NC(=O)c1ccc(Oc2nc3c(N)cc(C(F)(F)F)cc3nc2-c2ccccc2)cc1)C(=O)OCC (centres undefined)
3.42 µM (inactive)

###

system: MOLT-4; experiment: NCI tumour cell line growth inhibition, 48 h
Active and inactive are the calls of the source. Rule as the data show it: active = GI50 up to about 1.1 µM and inactive = higher.
Your response should consist of one outcome taken from T for active, F for inactive

COC(=O)[C@H]1ON2O[C@H](OC3CCCC[C@@H]3c3ccccc3)C[C@@H]3CC[C@H]1[C@@]32C (stereo partly specified); F
CC[n+]1c(/C=C/c2ccc(N(CCCl)CCCl)cc2)ccc2cc(NC(=O)/C=C/c3ccccc3)ccc21; T
C=CCSC(C)=O; F
N#C/C(=C\c1ccc(Cl)cc1)c1nc2ccccc2c(=O)[nH]1; F
O=C(NCc1cccc2ccccc12)N/N=C\c1ccc(Cl)cc1; F

Could you now consider this next molecule?
Short answer needed: outcome of this test for c1ccc(C2N3CCCCC3[C@@H]3c4[nH]c5ccccc5c4CCN23)nc1 (stereo partly specified) ?
F

###

tested on: LOX IMVI; experiment: NCI tumour cell line growth inhibition, 48 h
The source made the active and inactive calls. Rule as the data show it: active = GI50 up to about 1.1 µM and inactive = higher.
Would you kindly list GI50 for each of these compounds?

Solved cases below.
Cc1c(C#N)c(N)[nH]c(=S)c1C#N; > 100 µM (inactive)
Cc1c(NC(=O)C(C)(C)Br)c(=O)oc2c(C)c3occc(=O)c3cc12; 76.9 µM (inactive)
COc1ccc(-c2cc(=O)c3c(O)c(OC)c(OC)c(OC)c3o2)cc1 [GARDENIN B]; 17.6 µM (inactive)
COc1cc(O)c(C(=O)/C=C/c2ccc(OC)c(OCc3ccccc3)c2)c(OC)c1; 33.7 µM (inactive)

Turning now to a further record.
Kindly state the measured GI50 obtained for O=C1C(NS(=O)(=O)c2ccccc2)=C(N(Cc2ccccc2)Cc2ccccc2)C(=O)c2ccccc21 with LOX IMVI.
65.3 µM (inactive)

###

test system: NCI-H522; assay: NCI tumour cell line growth inhibition, 48 h
The source made the active and inactive calls. No stated cut-off is given here; in the data, active = GI50 up to about 1.1 µM and inactive = higher.
Your response should consist of one outcome taken from yes (1) = active, no (0) = inactive

Past entries and their recorded results:
CCOC(=O)Cn1sc2ncc([N+](=O)[O-])cc2c1=O; no (0)
Cc1cc2sc(C)[n+](CCCOS(=O)(=O)[O-])c2cc1C; no (0)
CC(=O)CC(=O)Nn1c(-c2cccs2)nc2ccc(I)cc2c1=O; no (0)
COC(=O)C1=C(C(=O)OC)SC(=C2SC3=C(SC(=C4SCCS4)S3)S2)S1; no (0)
Nc1c(-c2cn(Cc3ccccc3)c3ccccc23)[n+]([O-])c2ccccc2[n+]1[O-]; no (0)

Short answer needed: outcome of this test for Nc1ccc2c(c1)Nc1c3ccccc3nc3cccc-2c13 ?
no (0)

Short answer needed: outcome of this test for CCOC(=O)n1c(=O)nc2c3c(ncn21)Oc1c(c(-c2ccccc2)nn1-c1ccccc1)C3c1ccc(Cl)cc1 (centres undefined) ?
no (0)

Short answer needed: outcome of this test for COc1cc2c(oc(=O)c3c4oc([Si](C)(C)C)cc4cc(OC)c23)c2cccc(OCc3ccccc3)c12 ?
no (0)

Short answer needed: outcome of this test for O=CN/C=C/c1ccc(O)c(O)c1 ?
no (0)

Short answer needed: outcome of this test for NC(=O)C#CC#CC#CCO ?
yes (1)

Short answer needed: outcome of this test for C=CCn1c2ccccc2[n+]2cc([N+](=O)[O-])ccc12 ?
no (0)

Short answer needed: outcome of this test for CCOC(=O)[C@]12C(=C(c3ccccc3)O[C@H]3C=CCC[C@H]31)C(=O)C(=O)N2c1ccccc1 ?
no (0)

Short answer needed: outcome of this test for CN(CCO)CC(=O)CC(O)(C(F)(F)F)C(F)(F)F ?
no (0)

Short answer needed: outcome of this test for CCCCCCCCCC1CC(=O)OC2=C1C(=O)CCC2 (centres undefined) ?
no (0)

Short answer needed: outcome of this test for O=c1cc(/C=C/c2ccc(O)c(O)c2)oc(/C=C/c2ccc(O)c(O)c2)c1 ?
no (0)

Short answer needed: outcome of this test for CC(C)c1cccc(C(C)C)c1NC(=O)/C(CC(=O)CC(c1ccccc1)c1c(O)c2ccccc2oc1=O)=N/O (centres undefined) ?
no (0)

Short answer needed: outcome of this test for CCOC(=O)C(C)Sc1nnc(COc2ccc(Cl)cc2)n1-c1ccccc1 (centres undefined) ?
no (0)

Short answer needed: outcome of this test for COC(=O)CCC(NC(=O)OC(C)(C)C)C(=O)NC(Cc1ccc(NC(=O)CCCC(C)=O)cc1)C(=O)NC(CCC(=O)OC)C(=O)OC (centres undefined) ?
no (0)

Short answer needed: outcome of this test for CCCCN/C(=N/C#N)NCc1ccccc1 ?
no (0)

Short answer needed: outcome of this test for O=C(O)C1CCCN1Cc1cc2ccccc2c2ccccc12 (centres undefined) ?
no (0)

Short answer needed: outcome of this test for Nc1nc(Cl)c(CO)c(NCC2(CO)CC(CCc3ccccc3)C2)n1 (centres undefined) ?
no (0)

Short answer needed: outcome of this test for CCCCOCN/C(N)=N/C#N ?
no (0)

Short answer needed: outcome of this test for CC(=O)OC1CCn2nnc(CO)c21 (centres undefined) ?
no (0)

Short answer needed: outcome of this test for O=S(=O)(c1cc(Cl)ccc1Cl)N1CCN(c2ccc(Cl)c(Cl)c2)CC1 ?
no (0)

###

tested on: RPMI-8226; experiment: NCI tumour cell line growth inhibition, 48 h
Calls of active or inactive are those of the source. No stated cut-off is given here; in the data, active = GI50 up to about 1.1 µM and inactive = higher. Where a SMILES comes first, the peptide text is derived from it. The star is where a group is joined. Cbz = O=C(OCc1ccccc1)*; Boc = CC(C)(C)OC(=O)*; OSu = O=C1CCC(=O)N1O*; Bn = c1ccc(C*)cc1
Would you kindly list GI50 for each of these molecules?

Solved cases below.
CN1CN(c2ccccc2)C2(CCN(CC(C)(c3ccc(F)cc3)C3OCCCO3)CC2)C1=O (stereo not given); 10.2 µM (inactive)
CC(=O)OC1CCn2nnc(CO)c21 (stereo not given); > 100 µM (inactive)
CC(C)(C)OC(=O)NC(Cc1ccc(OCc2ccccc2)cc1)C(=O)NC(CCCCNC(=O)OCc1ccccc1)C(=O)ON1C(=O)CCC1=O (stereo not given) (Boc-Tyr(Bn)-Lys(Cbz)-OSu; configuration not given here); 20 µM (inactive)

# batch size: 2; output GI50 per entry
1. CC12CCC(=O)N1c1cnccc1N2 (stereo not given)
2. O=c1cc(/C=C/c2ccc(O)c(O)c2)oc(/C=C/c2ccc(O)c(O)c2)c1

> 100 µM (inactive)
6.58 µM (inactive)
